Tested on: prostate DU-145
Assay: COMPARE screening (NCI human cancer cell line screen), cytotoxicity GI50
Type: cell-based
REPORTED_PROPERTY: GI50

MOLECULE | VALUE_MEASURED
COc1ccc2c(c1)C(=O)c1c-2n(CCCNCCO)c(=O)c2cc([N+](=O)[O-])ccc12.Cl | < 0.03 µM
COc1cc2c3c(n(CCN4CCOCC4)c(=O)c2cc1OC)-c1ccccc1C3=O | > 100 µM
O=C1c2ccccc2-c2oc(=O)c3cc4c(cc3c21)OCO4 | > 100 µM
O=C(O)C(F)(F)F.O=C(O)C(F)(F)F.O=C1c2ccccc2-c2c1c1ccccc1c(=O)n2CCCNCCNCCCn1c2c(c3ccccc3c1=O)C(=O)c1ccccc1-2 [Compound 14e] | < 0.01 µM
